# credit: patent US20150359802A1

assay: Plasma protein binding by equilibrium dialysis, human plasma; assay type: in vitro ADME; conditions: human, plasma, seven hours at 37° C., read-out: Plasma protein binding [free fraction, fu]
value.type: fraction unbound at 7 h
Give a plain numeric answer without units written out.

Find the recorded fraction unbound at 7 h belonging to CC(C)(C#N)c1cc(Cn2cncn2)cc(C(C)(C)C#N)c1 and report it.
0.34

----------
assay: in vivo; conditions: female, cynomolgus monkey, plasma, iv, 0.2 mg/kg
value.type: clearance (mL/min/kg)
Reply with just the number (in mL/min/kg).

Find the recorded clearance belonging to CC(C)(C#N)c1cc(Cn2cncn2)cc(C(C)(C)C#N)c1 [Anastrozole, anastrozole] and report it.
9.67

----------
experiment: Plasma protein binding by equilibrium dialysis, cynomolgus monkey plasma; format: in vitro ADME; details: cynomolgus monkey, plasma, seven hours at 37° C., read-out: Plasma protein binding [free fraction, fu]
value.type: fraction unbound at 7 h
Give a plain numeric answer without units written out.

Find the recorded fraction unbound at 7 h belonging to CC(C)(C#N)c1cc(Cn2cncn2)cc(C(C)(C)C#N)c1 and report it.
0.52
